This collection of values is drawn from ChEMBL document CHEMBL3108754.

Each record here notes measured pIC50.
assay_explanation: Inhibition of TNF-alpha-induced NF-kappaB activity in HEK293 cells after 6 hrs by luciferase reporter gene assay
Format: cell-based
setup_conditions: Homo sapiens, HEK293, 6 h
Here pIC50 is given on a logarithmic scale as minus log10 of the concentration in mol/L.

The examples below pair each entry with its known result.
>>> recorded_measurement("Cc1ccc(S(=O)(=O)N[C@@H](Cc2ccccc2)C(=O)CCl)cc1")
5.42
>>> recorded_measurement("C/C=C(\\C)C(=O)O[C@H]1[C@H](O)[C@@H](C(=O)OC)O[C@@H]2C[C@H]3O[C@@H](n4cnc5c(N)ncnc54)[C@H](OC)[C@H]3O[C@]21O")
6.30

I'd like to know its pIC50. The compound in question is COC(=O)[C@H]1O[C@@H]2C[C@H]3O[C@@H](n4cnc5c(N)ncnc54)[C@H](OC)[C@H]3O[C@@]2(O)[C@H](O)[C@@H]1O 5.49

I'd like to know its pIC50. The compound in question is COC(=O)[C@H]1O[C@@H]2C[C@H]3O[C@@H](n4cnc5c(N)ncnc54)[C@H](OC)[C@H]3O[C@@]2(O)[C@@H](O)[C@@H]1O 5.54

I'd like to know its pIC50. The compound in question is C/C=C(\C)C(=O)O[C@H]1[C@H](O)[C@@H](C(=O)OC)O[C@@H]2C[C@H]3O[C@@H](n4cnc5c(N)ncnc54)[C@H](O)[C@H]3O[C@]21O 5.31

I'd like to know its pIC50. The compound in question is COC(=O)[C@@H]1CC(O)(O)[C@]2(O)O[C@@H]3[C@@H](OC)[C@H](n4cnc5c(N)ncnc54)O[C@@H]3C[C@H]2O1 5.62

I'd like to know its pIC50. The compound in question is C/C=C(\CO)C(=O)O[C@H]1[C@H](O)[C@@H](C(=O)OC)O[C@@H]2C[C@H]3O[C@@H](n4cnc5c(N)ncnc54)[C@H](OC)[C@H]3O[C@]21O 5.74

I'd like to know its pIC50. The compound in question is Cc1ccc(S(=O)(=O)/C=C/C#N)cc1 5.70
